These data points were gathered from BigSolDB 2.1.

Conditions: in PEG-400, 308.2 K
ENDPOINT: solubility (mole fraction)
One number for each entry.

Looking up CCN(CC)CCNC(=O)c1c(C)[nH]c(/C=C2\C(=O)Nc3ccc(F)cc32)c1C.O=C(O)C[C@H](O)C(=O)O , I found its solubility (mole fraction) recorded as 0.00996

###

Conditions: in ethanol, 308.2 K
ENDPOINT: solubility (mole fraction)

Looking up CCN(CC)CCNC(=O)c1c(C)[nH]c(/C=C2\C(=O)Nc3ccc(F)cc32)c1C.O=C(O)C[C@H](O)C(=O)O , I found its solubility (mole fraction) recorded as 0.00372

###

Details: in isopropanol, 298.2 K
ENDPOINT: solubility (mole fraction)
Give bare numbers.

Looking up CCN(CC)CCNC(=O)c1c(C)[nH]c(/C=C2\C(=O)Nc3ccc(F)cc32)c1C.O=C(O)C[C@H](O)C(=O)O , I found its solubility (mole fraction) recorded as 0.00634

###

Conditions: in transcutol, 298.2 K
ENDPOINT: solubility (mole fraction)
Answers are plain numbers.

Looking up CCN(CC)CCNC(=O)c1c(C)[nH]c(/C=C2\C(=O)Nc3ccc(F)cc32)c1C.O=C(O)C[C@H](O)C(=O)O , I found its solubility (mole fraction) recorded as 0.00997

###

Details: in ethanol, 303.2 K
ENDPOINT: solubility (mole fraction)

Looking up CCN(CC)CCNC(=O)c1c(C)[nH]c(/C=C2\C(=O)Nc3ccc(F)cc32)c1C.O=C(O)C[C@H](O)C(=O)O , I found its solubility (mole fraction) recorded as 0.00321

###

Details: in ethanol, 298.2 K
ENDPOINT: solubility (mole fraction)
Numbers only.

Looking up CCN(CC)CCNC(=O)c1c(C)[nH]c(/C=C2\C(=O)Nc3ccc(F)cc32)c1C.O=C(O)C[C@H](O)C(=O)O , I found its solubility (mole fraction) recorded as 0.00277
